Let's look at some compounds and their measured Population Normal (%).
- Test system: HEK-293T
- Run Description: Multiplex assay against HEK293T
- Format: toxicity, cell-based
- Details: human, 12 h, 10 µM, compound concentration 10 uM, replicate 1
The figure you give is taken to be in %; do not add the unit.

Observe how each entry below is paired with its result.
Cc1cc(NC(=O)NCCN2CCC(O)(Cc3ccccc3)CC2)c2ccccc2n1 [PALOSURAN] : 91
Cc1cc(=O)n(C)c2cc(N3C(=O)CC[C@H](NS(=O)(=O)CC(C)C)[C@H]3c3ccc(Cl)cc3)ccc12 : 88
CCn1c(-c2nc3cc(C(=O)N4CCCC(N)C4)ccc3n2C)cc2ccccc21.Cl (stereo unspecified) : 88
CC(C)(O)C(=O)N1CCN(c2ccc(C(F)(F)F)c(C3=C(c4c[nH]c5ccccc45)C(=O)NC3=O)c2)CC1 : 89
CC(F)(F)CN1CCOc2c(nn(-c3ccccc3Cl)c2-c2ccc(Cl)cc2)C1=O : 89

Read the next record carefully.
Q: Fill blank: measured Population Normal (%) of the compound COc1cc(OC2CCN(C(C)=O)CC2)ccc1C(=O)N1CCC(N2C(=O)OCc3ccccc32)CC1 is ____.
Result: 91

meta.source: ChEMBL document CHEMBL5058577
